experiment: Quantitative highthroughput screen to assess conditional lethalithy of P12 Ichikawa cells grown in RPMI1640 with untreated serum (RPMI+s) (AID 1963881); conditions: ATP luminescence, 48 h; viability; series mostly up to 45.8 µM; also: nearly all actives have a fitted effect of over 35% in size
Results filed as inconclusive are left out. Calls of active or inactive are those of the source. Calls follow the shape of the dose curve; as a rule, active = well fitted cell-killing curve with a large enough effect; inconclusive = small, poorly fitted or top-dose-only effect; inactive = flat fitted curve, though single readings scatter.
Possible outcomes: true (active), false (inactive)

MOLECULE | CLASSIFICATION
Cc1ccnc2c1NC(=O)c1cccnc1N2C1CC1 | false
CC(C)c1onc(-c2c(Cl)cccc2Cl)c1COc1ccc(C=Cc2cccc(C(=O)O)c2)c(Cl)c1 | false
CCN(CC)CCn1c(=O)c(Cc2ccc(OC)cc2)nc2ccccc21 | false
C[C@H]1[C@H](O)O[C@@H]2O[C@@]3(C)CC[C@@H]4[C@H](C)CC[C@@H]1[C@@]24OO3 | true
Cc1ccc(Nc2cc(-c3cccc(N4C(=O)c5ccccc5C4=O)c3)ncn2)cc1NS(C)(=O)=O | false
Cc1cc(C(C)Nc2ccccc2)c2nc(N3CCOCC3)cc(=O)n2c1 (centres undefined) | false
CNC(=O)c1ccc(C)c(-n2c(C)cc(OCc3ccc(F)cc3F)c(Br)c2=O)c1 | false
NC(=O)c1ncn([C@@H]2O[C@H](CO)[C@@H](O)[C@@H]2O)c1N | false
Cc1cc(C(C)(C)C)cc(C)c1CC1=NCCN1 | false
C=CC(=O)Nc1cc2c(Nc3ccc(F)c(Cl)c3)ncnc2cc1C#CC(C)(C)N1CCN(C)CC1 | true
C=CC(=O)N1CCc2ccc(-n3c(=O)ccc4cnc5ccc(-c6cnn(C)c6)cc5c43)cc21 | true
CC(C)NCC(O)c1ccc(NS(C)(=O)=O)cc1 (centres undefined) | false
COC(=O)C1=C(C)NC(C)=C(C(=O)OCCCN2CCC(c3ccccc3)(c3ccccc3)CC2)C1c1cccc([N+](=O)[O-])c1 (centres undefined) | false
O=C(NCc1ccccc1)[C@H](Cc1ccccc1)NC(=O)[C@@H]1O[C@@H]1C(=O)NCCc1ccc(O)cc1 | false
CNS(=O)(=O)CCc1ccc2[nH]cc(C3CCN(C)CC3)c2c1 | false
COc1ccnc(CS(=O)c2nc3ccc(OC(F)F)cc3[nH]2)c1OC (centres undefined) | false
CCN(C(=O)c1c(O)c2c(Cl)cccc2n(C)c1=O)c1ccccc1 | true
Cc1[nH]c(C=C2C(=O)Nc3ccc(S(=O)(=O)N(C)c4cccc(Cl)c4)cc32)c(C)c1C(=O)N1CCN(C)CC1 | true
CCC1=C[C@@H]2CN(C1)Cc1c([nH]c3ccccc13)[C@@](C(=O)OC)(c1cc3c(cc1OC)N(C)[C@@H]1[C@@](O)(C(=O)OC)[C@H](OC(C)=O)[C@]4(CC)C=CCN5CC[C@]31[C@@H]54)C2 | true

Reference source: PubChem BioAssay (NCATS)
